tested on: COLO 205 colon; assay: NCI tumour cell line growth inhibition, 48 h
ASSAY ENDPOINT: TGI

> print(dat)
                                    compound  assay.endpoint  reported.measurement
 1  COc1ccc(-c2nc3c(c(=O)n2C(C)=O)C(c2ccc(Cl)cc2)c2sc4c(Cl)cccc4c2O3)cc1 (stereo not drawn)             TGI               1.32 µM
 2  COC(=O)CC(NC(=O)OCc1ccccc1)C(C(=O)OCc1ccccc1)C1(C)OCCO1 (stereo not drawn)             TGI               36.5 µM
 3  NS(=O)(=O)c1cc(S(N)(=O)=O)c(NC(=O)N(c2ccccc2)c2ccccc2)c(Cl)c1Cl             TGI               42.2 µM
 4             Cc1cc2n([O-])cccc-2[n+](=O)c1             TGI              > 100 µM
 5  CCCC(=O)Nc1cc(/C=C/C(=O)N2CC(CCl)c3ccc(N)cc32)n(C)c1 (stereo not drawn)             TGI                0.3 µM
 6  CC(C)(C)c1ccc(-c2nnc(-c3cc(C#N)cc(-c4nnc(-c5ccc(C(C)(C)C)cc5)o4)c3)o2)cc1             TGI              > 100 µM
 7  COc1cc(-n2cc(-c3cc(O)c(C/C=C(\C)CCC=C(C)C)c(O)c3)nn2)cc2c1O[C@]1(C)CC[C@@H](O)C(C)(C)[C@H]1C2             TGI               22.2 µM
 8  Cn1cnc([N+](=O)[O-])c1Sc1nc(N)nc2nc[nH]c12             TGI             > 74.5 µM
 9  C/C(=N\n1c(N)c(C#N)c(-c2ccc(Cl)cc2)c(C#N)c1=O)c1ccncc1             TGI              > 100 µM
10  C/C(=N\Nc1ccccc1)C(CN(C)C)C(c1ccccc1)c1c(O)c2ccccc2oc1=O (stereo not drawn)             TGI              > 100 µM
11     COC(=O)c1ccc(/C=C2\CCc3ccccc3C2=O)cc1             TGI              > 100 µM
12  CC(=O)Nc1ccc(C(=O)N2N=C(C)/C(=C/c3ccc(O)cc3)C2=O)cc1             TGI              > 100 µM
13  Cc1ccccc1NC(=O)C(=O)CC(=O)c1ccc([N+](=O)[O-])cc1             TGI              > 100 µM
